System: leukocyte migration in 4 dpf zebrafish larvae
PROCEDURE SUMMARY: LPS-enhanced leukocyte migration assay (tail transection, MPO staining, RLM)
Assay type: in vivo, zebrafish (Danio rerio)
Set-up: concentration or dose not given beside the values
EXPERIMENTAL SETUP: at MTC; (1−RLM)x100
Each entry gets Not satisfied if its Anti-inflammatory activity at MTC stays under 60%, and Satisfied if its Anti-inflammatory activity at MTC is 60% or above.

Below, 4 compounds whose answers are already recorded.
> print(dat)
                                   compound            cat
1                 O=C(O)/C=C/c1ccc(O)c(O)c1      Satisfied
2      O=c1cc(-c2ccc(O)cc2)oc2cc(O)cc(O)c12      Satisfied
3  O=c1c(O)c(-c2ccc(O)c(O)c2)oc2cc(O)cc(O)c12      Satisfied
4  CC(C)=CCC[C@](C)(O)[C@@H]1CC=C(C)CC1 [(−)-α-bisabolol]  Not satisfied

*Q* # bool: Anti-inflammatory activity at MTC of "O=C1C[C@@H](c2ccc(O)cc2)Oc2cc(O)cc(O)c21" >= 60%
*A* Satisfied

---

Collected Maximum tolerated concentration (MTC) values appear next to each entry.
Tested on: zebrafish larvae
EXPERIMENTAL SETUP: 4 dpf zebrafish larvae, 8 h post-incubation; not more than 2 of 10 larvae with signs of toxicity
Where a name gives a salt, the structure may show the parent alone.
Could you give me the number in µM? Just the number is fine.

COMPOUND	ASSAYED SYSTEM	Maximum tolerated concentration (MTC) / µM
NC12CC3CC(CC(C3)C1)C2 [amantadine, amantadine hydrochloride]	zebrafish larvae	200
O=C1C[C@@H](c2ccc(O)cc2)Oc2cc(O)cc(O)c21 [Naringenin, naringenin]	zebrafish larvae	30
C[C@]1(OC(=O)/C=C/c2ccccc2)C[C@@H](O)[C@]2(O)C=CO[C@@H](O[C@@H]3O[C@H](CO)[C@@H](O)[C@H](O)[C@H]3O)[C@@H]21 [Harpagoside, harpagoside]	zebrafish larvae	300
Nc1nc(N)nc(N)n1 [melamine]	zebrafish larvae	200
CN1C(C(=O)Nc2ccccn2)=C(O)c2ccccc2S1(=O)=O [piroxicam]	zebrafish larvae	100

*Q* // lookup Maximum tolerated concentration (MTC) | system=zebrafish larvae | key= O=C(O)/C=C/c1ccc(O)c(O)c1 [Caffeic acid, caffeic acid]
*A* 500

*Q* Consider next the compound O=c1cc(-c2ccc(O)cc2)oc2cc(O)cc(O)c12 [Apigenin, apigenin] in the same way.
*A* 500

*Q* Consider next the compound CC(C)=CCC[C@](C)(O)[C@@H]1CC=C(C)CC1 [(−)-α-bisabolol] in the same way.
*A* 30

*Q* Consider next the compound O=c1c(O)c(-c2ccc(O)c(O)c2)oc2cc(O)cc(O)c12 [Quercetin, quercetin] in the same way.
*A* 500

*Q* Consider next the compound COc1ccc2c(c1)c(CC(=O)O)c(C)n2C(=O)c1ccc(Cl)cc1 [indomethacin] in the same way.
*A* 200

*Q* Consider next the compound O=C(O)Cc1ccccc1Nc1c(Cl)cccc1Cl [diclofenac] in the same way.
*A* 10

*Q* Consider next the compound O=c1cc(-c2ccc(O)c(O)c2)oc2cc(O)cc(O)c12 [Luteolin, luteolin] in the same way.
*A* 500

---

System: leukocyte migration in 4 dpf zebrafish larvae
PROCEDURE SUMMARY: LPS-enhanced leukocyte migration assay (tail transection, MPO staining, RLM)
Assay type: in vivo, zebrafish (Danio rerio)
EXPERIMENTAL SETUP: Danio rerio, Leukocyte, 8 h; 30 µM; tail cut + 10 µg/ml LPS, relative to 1% DMSO control
Counter-ions that a name gives are not always drawn.
// assign Criterion met if response vs control in vivo at 30 µM falls strictly below 40%, else Criterion not met (ties count as Criterion not met)

COMPOUND	ASSAYED SYSTEM	CAT
O=C(O)/C=C/c1ccc(O)c(O)c1	leukocyte migration in 4 dpf zebrafish larvae	Criterion not met
O=c1cc(-c2ccc(O)c(O)c2)oc2cc(O)cc(O)c12	leukocyte migration in 4 dpf zebrafish larvae	Criterion not met
O=C1C[C@@H](c2ccc(O)cc2)Oc2cc(O)cc(O)c21	leukocyte migration in 4 dpf zebrafish larvae	Criterion met

*Q* Strictly below 40%: is that where response vs control in vivo at 30 µM of CN(C)CCC=C1c2ccccc2COc2ccccc21 [doxepin, doxepin hydrochloride] sits?
*A* Criterion not met

*Q* Consider next the compound "O=c1cc(-c2ccc(O)cc2)oc2cc(O)cc(O)c12" in the same way.
*A* Criterion not met

*Q* Consider next the compound "O=c1c(O)c(-c2ccc(O)c(O)c2)oc2cc(O)cc(O)c12" in the same way.
*A* Criterion met

*Q* Consider next the compound C[C@]1(OC(=O)/C=C/c2ccccc2)C[C@@H](O)[C@]2(O)C=CO[C@@H](O[C@@H]3O[C@H](CO)[C@@H](O)[C@H](O)[C@H]3O)[C@@H]21 [Harpagoside, harpagoside] in the same way.
*A* Criterion met

---

Tested on: leukocyte migration in 4 dpf zebrafish larvae
PROCEDURE SUMMARY: LPS-enhanced leukocyte migration assay (tail transection, MPO staining, RLM)
Format: in vivo, zebrafish (Danio rerio)
EXPERIMENTAL SETUP: Danio rerio, Leukocyte, 8 h; 1 µM; tail cut + 10 µg/ml LPS, relative to 1% DMSO control
ENDPOINT: response vs control in vivo at 1 µM (%)
Could you give me the number in %? Just the number is fine.

MOLECULE	response vs control in vivo at 1 µM [%]
O=C(O)/C=C/c1ccc(O)c(O)c1	80

*Q* Which response vs control in vivo at 1 µM is listed for "O=c1cc(-c2ccc(O)cc2)oc2cc(O)cc(O)c12" ?
*A* 74

*Q* Consider next the molecule "O=c1cc(-c2ccc(O)c(O)c2)oc2cc(O)cc(O)c12" in the same way.
*A* 63

*Q* Consider next the molecule "O=c1c(O)c(-c2ccc(O)c(O)c2)oc2cc(O)cc(O)c12" in the same way.
*A* 65

*Q* Consider next the molecule "O=C1C[C@@H](c2ccc(O)cc2)Oc2cc(O)cc(O)c21" in the same way.
*A* 67

*Q* Consider next the molecule C[C@]1(OC(=O)/C=C/c2ccccc2)C[C@@H](O)[C@]2(O)C=CO[C@@H](O[C@@H]3O[C@H](CO)[C@@H](O)[C@H](O)[C@H]3O)[C@@H]21 [Harpagoside, harpagoside] in the same way.
*A* 48

---

System: leukocyte migration in 4 dpf zebrafish larvae
PROCEDURE SUMMARY: LPS-enhanced leukocyte migration assay (tail transection, MPO staining, RLM)
Format: in vivo, zebrafish (Danio rerio)
EXPERIMENTAL SETUP: Danio rerio, Leukocyte, 8 h; 10 µM; tail cut + 10 µg/ml LPS, relative to 1% DMSO control
Experimental: The lipopolysaccharide- (LPS−)enhanced leukocyte migration assay was carried out by triplicate for each sample in 4 dpf zebrafish larvae. The total incubation period of the assay was eight hours. […] The average of the value achieved for each of the ten larvae tested in triplicate for one sample is expressed as relative leukocyte migration (RLM) according to the formula: RLM = leukocyte migration of the larva/average leukocyte migration of the negative control. […]
Each entry gets false if its response vs control in vivo at 10 µM stays under 40%, and true if its response vs control in vivo at 10 µM is 40% or above.

MOLECULE	ASSAYED SYSTEM	CAT
C[C@]1(OC(=O)/C=C/c2ccccc2)C[C@@H](O)[C@]2(O)C=CO[C@@H](O[C@@H]3O[C@H](CO)[C@@H](O)[C@H](O)[C@H]3O)[C@@H]21 [Harpagoside, harpagoside]	leukocyte migration in 4 dpf zebrafish larvae	false
O=C1C[C@@H](c2ccc(O)cc2)Oc2cc(O)cc(O)c21 [Naringenin, naringenin]	leukocyte migration in 4 dpf zebrafish larvae	true
O=C(O)Cc1ccccc1Nc1c(Cl)cccc1Cl [diclofenac]	leukocyte migration in 4 dpf zebrafish larvae	false
O=c1c(O)c(-c2ccc(O)c(O)c2)oc2cc(O)cc(O)c12 [Quercetin, quercetin]	leukocyte migration in 4 dpf zebrafish larvae	true
O=c1cc(-c2ccc(O)c(O)c2)oc2cc(O)cc(O)c12 [Luteolin, luteolin]	leukocyte migration in 4 dpf zebrafish larvae	true

*Q* # bool: response vs control in vivo at 10 µM of O=C(O)/C=C/c1ccc(O)c(O)c1 [Caffeic acid, caffeic acid] >= 40%
*A* true

*Q* Consider next the molecule O=c1cc(-c2ccc(O)cc2)oc2cc(O)cc(O)c12 [Apigenin, apigenin] in the same way.
*A* true

The measured values listed here are drawn from paper PMC3790782.
